TARGET_DESC: EGFR (human)
CONDITION_INFO: a431
PARAMETER: IC50 (µg/mL)

Record excerpt, results attached:
COc1cc2ncc(C#N)c(Nc3ccc(Sc4nc5ccccc5c(=O)[nH]4)c(Cl)c3)c2cc1[N+](=O)[O-]
2.28
COc1cc2ncc(C#N)c(Nc3ccc(-n4ccnc4)c(Cl)c3)c2cc1N
1.63

a = COc1cc2ncc(C#N)c(Nc3ccc(N(Cc4cccnc4)C(C)=O)c(Cl)c3)c2cc1[N+](=O)[O-]
b = COc1cc2ncc(C#N)c(Nc3ccc(N(Cc4cccnc4)C(C)=O)c(Cl)c3)c2cc1NC(C)=O
c = COc1cc2ncc(C#N)c(Nc3ccc(Sc4nccn4C)c(Cl)c3)c2cc1NC(=O)/C=C/CN(C)C
Req: In this exercise, place the 3 compounds in ascending sequence of their recorded IC50. In plain terms: list the labels in the order you were asked to.
Resp: c, a, b
(c: 0.02 µg/mL, a: 1.6 µg/mL, b: 3.68 µg/mL)
